Would you mind telling me the reported GI50 of each entry?
# Test system: HCC-2998 colon
# assay details: NCI tumour cell line growth inhibition, 48 h

In: Please state recorded GI50 (tested on HCC-2998 colon) of `CC(=O)O.CC(=O)O.CC(=O)O.CC(=O)O.CC(=O)O.CC(=O)O.O.[Ti].[Ti]`
Out: > 100000 nM

In: Again, but for `CCC[CH2][Sn]([CH2]CCC)([CH2]CCC)[O]C(=O)CC`
Out: 171 nM

In: `CCC[CH2][Ge]([CH2]CCC)([CH2]CCC)[O]C(=O)CC(=O)c1ccccc1` , same question.
Out: 1300 nM

In: Also check `CC(C)=C[C@@H]1C[C@H](C)[C@H]2CC[C@H](C)C3=C2[C@](O)(OC3=O)[C@]1(C)O`
Out: > 100000 nM

In: Moving on to the next compound: `NCCCNc1nc2ccccc2c2c(=O)c3cc(OC(F)(F)F)ccc3sc12`
Out: 1710 nM
